MEASUREMENT DESCRIPTION: Pharmacokinetic studies of certain compounds in female Balb/c mice (Example 5)
Type: in vivo
SETUP CONDITIONS: female, Balb/c, mouse, plasma, po, 23.8 mg/kg, I-29 PO 23.8 mg/kg, 0.083 hr, read-out: Plasma concentration Mean
MEASURED ENDPOINT: concentration at 0.083 hr (ng/mL)

1) CC(C)Cc1sc(Nc2ncc(-c3cccs3)cc2C(=O)O)nc1C1CCC(F)(F)CC1 :: 41.6

====

MEASUREMENT DESCRIPTION: Pharmacokinetic studies of certain compounds in female Balb/c mice (Example 5)
Type: in vivo
SETUP CONDITIONS: female, Balb/c, mouse, plasma, po, 30 mg/kg, I-27 PO 30 mg/kg, 2 hr, read-out: Plasma concentration Individual
MEASURED ENDPOINT: concentration at 2 h

1. CC(C)Cc1sc(Nc2ncc(-c3cccs3)cc2C(=O)O)nc1C1(C)CCCCC1 :: 2040 ng/mL
